Data provenance: PubChem BioAssay (NCI)

PROTOCOL_DETAILS: NCI Yeast Anticancer Drug Screen. Data for the rad14 strain (AID 159);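 further: 0% = growth of vehicle-treated control cultures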
TEST_SETTINGS: S. cerevisiae rad14 strain growth inhibition; at 3.7 µM; active compounds read high
Description: Growth inhibition of yeast strains with defined genetic alterations is measured as a screen for potential anti-cancer activity. Selected strains with alterations in DNA damage repair or cell cycle control were exposed to compounds and growth inhibition was measured relative to vehicle treated controls. The strain used in this assay is rad14
This is part of a sample that, as a whole, favours compounds with a hit. Of some 79,000 tested, about 15% had one in any assay.
Label rule met for high-side growth inhibition (at or above 20%) and rule not met for low-side growth inhibition (below it).

Oc1cccc2nc3ccccc3nc12: rule not met
c1cc2c(cc1C1OC[C@H]3[C@@H](c4ccc5c(c4)OCO5)OC[C@@H]13)OCO2 (some centres not stated): rule not met
COc1ccc(OC)c(/C=C/[N+](=O)[O-])c1: rule not met

Is growth inhibition for CC1CN1C1=C(Cl)C(=O)C(N2CC2C)=C(Cl)C1=O (configuration not stated) at or above 20%?
rule met

Now the same for COC(=O)C1C2c3ccccc3C(c3ccccc32)C1C(=O)OC (configuration not stated)
rule not met

Try the compound `O=P(CCCCP(=O)(c1ccccc1)c1ccccc1)(c1ccccc1)c1ccccc1.[Cl][Sn]([Cl])([c]1ccccc1)[c]1ccccc1`
rule not met

Can you handle OC1(c2ccccc2)CC2CCC(C1)N2CCCC(O)(c1ccccc1)c1ccccc1 (configuration not stated) next?
rule not met

* * *

Documented growth inhibition across a set of compounds
PROTOCOL_DETAILS: NCI Yeast Anticancer Drug Screen. Data for the bub3 strain (AID 167)
TEST_SETTINGS: S. cerevisiae bub3 mutant strain, at 50.0 µM (retest, dose inferred, filed as 5.0), active compounds read high
About 79,000 compounds went through this panel and 15% of them were active in at least one assay; those are over-represented in the sample as a whole.
Value expressed in %; do not type the unit.

O=P1(Oc2ccccc2)C(c2ccccc2)C(c2ccccc2)=NN1c1ccccc1 (stereo unspecified): 5
CC(=O)Oc1ccc(N=C2C=C(Cl)C(=O)C(Cl)=C2)cc1: 46
O=P(Oc1ccc(Cl)cc1)(Oc1ccc(Cl)cc1)N1CC1: 27
O=C(Nc1cc(Cl)ccc1Cl)C(Cl)(Cl)Cl: 31
Oc1ccc2ccccc2c1O: 90
Cc1ccc2c[c]1[Hg][CH2]COS2(=O)=O: 99
Cc1cc([N+](=O)[O-])c(O)c([N+](=O)[O-])c1C: 58
O=C(c1ccccc1)c1c(CC(O)c2ccncc2)n(C(=O)c2ccccc2)c2ccccc12 (stereo unspecified): 98

// growth inhibition lookup, key: `CC/C(=C\c1ccc(Cl)cc1)[N+](=O)[O-]`
99

What do we get for `CCC1(C2=CCCCC2)C(=O)NC(=S)NC1=O` ?
62

Now the same for C/C(=N\Nc1ccccn1)C1CC[N-]C2C(O)CCCC12.C/C(=N\Nc1ccccn1)C1CC[N-]C2C(O)CCCC12.[Cu+2] (stereo unspecified)
98

Next: `CC(=O)Nc1cccc([As+](C)(c2cccc(NC(C)=O)c2)c2cccc(NC(C)=O)c2)c1`
3

* * *

PROTOCOL_DETAILS: NCI Yeast Anticancer Drug Screen. Data for the sgs1 strain (AID 173);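 further: 0% = growth of vehicle-only control cultures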
TEST_SETTINGS: S. cerevisiae sgs1 mutant, at 100.0 µM
This is part of a sample that, as a whole, favours compounds with a hit. Of some 79,000 tested, about 15% had one in any assay. Active and inactive are the calls of the source. Rule as the data show it: active = growth inhibition above about 70%; inactive = the rest.
Outcome (select one): active, inactive

Worked examples follow.
c1cc2c(cc1C1OC[C@H]3[C@@H](c4ccc5c(c4)OCO5)OC[C@@H]13)OCO2 (some centres undefined): inactive
OCC(O)C(O)CO (centres undefined) (tested in a mixture with another compound): inactive
CO[C@H](/C(C)=C/C=C/C(C)=C/c1coc(C)n1)[C@H](C)[C@H]1C[C@@H](O)[C@@]2(C)O[C@H]2/C=C/[C@@H](C)[C@@H]2C[C@@H](CC(=O)O2)C[C@H]2O[C@@H]2C(=O)O1: active
C[CH2][Sn]1([CH2]C)[O]C2C(O)OC(CO)C(O)C2[O]1 (centres undefined): inactive
NNc1ccccc1Cl: active
O=C1C=CC(=O)C1(Br)Br: active

Kindly provide the recorded test outcome for the following molecule: CCCCCCCCCCCCCCCCP(=O)(O)OCC(N)C(=O)O (centres undefined)
active

Field entry: `Oc1cccc2nc3ccccc3nc12`
active

How about this molecule: CCOC(=O)C1C2c3ccccc3C(c3ccccc32)C1C(=O)OCC (centres undefined)
active

Moving on to the next molecule: `C[N+](CCCl)(CCCl)Cc1cccc2cccc([N+](=O)[O-])c12`
active

Item: `O=C1NC(=S)NC(=O)C1=Cc1ccc([N+](=O)[O-])o1`
inactive

Another molecule to check: OC(c1ccc(Br)cc1)C(Cl)(Cl)Cl (centres undefined)
active

Another: `c1c(N2CCOCC2)ssc1=[N+]1CCOCC1`
inactive

Same question, O=C(c1ccccc1)C1C(c2ccccc2[N+](=O)[O-])N1C1CCCCC1 (centres undefined) this time
active
